Experiment: NCI Yeast Anticancer Drug Screen. Data for the bub3 strain (AID 167)
Settings: S. cerevisiae bub3 mutant strain, at 5.0 µM (retest, dose inferred, filed as 0.5), hits give high values
Description: Growth inhibition of yeast strains with defined genetic alterations is measured as a screen for potential anti-cancer activity. Selected strains with alterations in DNA damage repair or cell cycle control were exposed to compounds and growth inhibition was measured relative to vehicle treated controls. The strain used in this assay is bub3
Compounds without any hit were thinned out: in the full panel of roughly 79,000, 15% have a hit.
# reported growth inhibition; entries follow
The response must be a number in % with no trailing unit.

>  <compound>
CCOc1ccc2nc(Cl)sc2c1

>  <measured_result>
1

$$$$
>  <compound>
O=C(O)C(Cc1cc(I)c(O)c(I)c1)C1CCCCC1 (configuration not stated)

>  <measured_result>
-11

$$$$
>  <compound>
COc1ccc(/C=C/C(C)=N/NC(=S)NCC(C)C)cc1

>  <measured_result>
-6

$$$$
>  <compound>
Cc1cccc(NC(=S)N/N=C(/c2ccccc2)c2ccccn2)c1

>  <measured_result>
-38

$$$$
>  <compound>
O=[N+]([O-])c1cc2[nH]cnc2c([N+](=O)[O-])c1NCc1ccccc1

>  <measured_result>
-4

$$$$
>  <compound>
COC(=O)CCC(=O)N1C/C(=C\c2ccccc2)C(=O)/C(=C/c2ccccc2)C1

>  <measured_result>
2

$$$$
>  <compound>
O=C(C[P+](c1ccccc1)(c1ccccc1)c1ccccc1)c1ccc(Br)cc1

>  <measured_result>
62

$$$$
>  <compound>
CC(C)=CCc1c(O)cc(O)c2c1OC(c1ccc(O)cc1)C(O)C2=O (configuration not stated)

>  <measured_result>
5

$$$$

INPUT: Could you tell me which growth inhibition is on file for O=C(OCc1ccccc1)c1ccc(O)cc1 ?
OUTPUT: 9

INPUT: Could you tell me which growth inhibition is on file for Fc1cccc(NC(=S)SCc2ccco2)c1 ?
OUTPUT: -11

INPUT: Could you tell me which growth inhibition is on file for CCCCOC(=O)c1ccc(S(=O)(=O)c2ccc(C(=O)OCCCC)cc2)cc1 ?
OUTPUT: 4

INPUT: Could you tell me which growth inhibition is on file for CC(C)C1(C)C(C#N)(C#N)C1(C#N)C#N ?
OUTPUT: -39
